For each record, write down the corresponding α-Glucosidase (IC50).
Target: α-glucosidase
Assay: α-Glucosidase inhibition assay
Type: biochemical, Saccharomyces cerevisiae
Reply numerically in µg/mL, unit not repeated.

Asked: Value lookup for α-Glucosidase (IC50); key = S=C=NCCc1ccccc1 [2-Phenylethylisothiocyanate, 2-phenylethylisothiocyanate]
Given back: 28.9

Asked: Value lookup for α-Glucosidase (IC50); key = O=c1cc(-c2ccc(O)cc2)oc2cc(O)cc(O)c12 [Apigenin, apigenin]
Given back: 24.4

Asked: Value lookup for α-Glucosidase (IC50); key = C[C@@H]1O[C@@H](Oc2c(-c3ccc(O)c(O)c3)oc3cc(O)cc(O)c3c2=O)[C@H](O)[C@H](O)[C@H]1O [Quercitrin, quercitrin]
Given back: 7.6

Asked: Value lookup for α-Glucosidase (IC50); key = O=C(O)c1cc(O)c(O)c(O)c1 [gallic acid]
Given back: 8.2

Asked: Value lookup for α-Glucosidase (IC50); key = O=C1C=CC(=O)c2c(O)cccc21 [Juglone, juglone]
Given back: 5.7
